Source: PubChem BioAssay (NCI)

tested on: SNB-19 CNS; assay: NCI tumour cell line growth inhibition, 48 h; in the data active = GI50 below about 0.43 µM; inactive = the rest
Outcomes: yes (active), no (inactive)

compound=CCC[CH2][Sn]([CH2]CCC)([O]C(=O)Cc1ccc(F)cc1)[O]C(=O)Cc1ccc(F)cc1 classification=no
compound=O=C1/C(=C\c2ccc(Br)cc2)CN(C(=O)c2ccccc2F)C/C1=C\c1ccc(Br)cc1 classification=no
compound=Cc1cc(C)c(CNC(=O)c2cc(-c3ccc(CN4CCOCC4)cc3)cc3c2cnn3C2CCCC2)c(=O)[nH]1 classification=no
compound="COc1cc(/C=C2\\CC3C4CCC5=CC(=O)CC[C@]5(C)C4CC[C@]3(C)C2=O)ccc1OCCCn1ccnc1 (stereo not given in full)" classification=no
compound=Cc1cccc(NC(=O)c2sc3nc4c(cc3c2N)CCCC4)c1 classification=no
compound=CC1=C(SCCC(=O)OCC(=O)NCCC[Te]c2ccccc2)C(=O)c2ccccc2C1=O classification=no
compound=Ic1ccc2[nH]cc(SSc3c[nH]c4ccc(I)cc34)c2c1 classification=no
compound=CCOC(=O)c1cc(NC(=O)c2cc(NC(=O)c3cc(NC(=O)c4c(-c5ccccc5)noc4C)cn3C)cn2C)cn1C classification=no
compound=COC(=O)c1c2c(c[n+]([O-])c1C)C(=O)C=C(NCc1ccccc1)C2=O classification=yes
compound=COc1cc(/C=C/C(=O)c2cc(OC)c(OC)c(OC)c2)ccc1Oc1nc2c(c(=O)n(C)c(=O)n2C)n1C classification=no
compound="Cn1nc(-c2cccs2)cc1/N=C(\\N)C(C)(C#N)Cc1ccccc1 (stereo not given)" classification=no
compound=CN(C)c1ccc2nc3ccc(=N)cc-3sc2c1 classification=no
compound="CC(C)(C)c1[nH]nc2c1C(c1cc3ccccc3[nH]c1=O)Nc1cc(C(=O)Nc3ccc(Cl)cc3)ccc1N2 (stereo not given)" classification=no
compound=CC(C)(C)N=Cc1ccccc1[O-].CC(C)(C)N=Cc1ccccc1[O-].[Co+2] classification=no
compound=CCOC(=O)c1cc(C(=O)c2ccc(Cl)cc2)n2ccc(-c3cc[n+](CC(=O)c4ccc(OC)cc4)cc3)cc12 classification=no

---

system: NCI/ADR-RES ovarian; test: NCI tumour cell line growth inhibition, 48 h
measured quantity: TGI (µM)

compound="CCN1C/C(=C\\c2cc(OC)c(OC)c(OC)c2)C2=NN(c3ccccc3)C(c3cc(OC)c(OC)c(OC)c3)C2C1 (stereo not drawn)" bound_operator== result=7.4
compound=COc1cc2c(cc1OC)C(=O)/C(=C/c1ccccc1)CC2 bound_operator== result=70
compound=Cn1c(-c2ccc(/C=N/N=C/c3ccc(-c4c[n+]5ccccc5n4C)cc3)cc2)c[n+]2ccccc12 bound_operator=> result=100
compound=CCN1CCN(c2cc(C)nc(N(CCCNc3ccnc4cc(Cl)ccc34)Cc3cccs3)n2)CC1 bound_operator== result=16.8
compound=COc1cc2c(cc1O)N=C[C@@H]1C[C@@H](F)CN1C2=O bound_operator== result=6.15
compound="CNC(=O)CCC(NC(=O)OC(C)(C)C)C(=O)NC(Cc1ccc(NC(=O)CCCCC(C)=O)cc1)C(=O)NCC(=O)NC (stereo not drawn)" bound_operator=> result=100
compound=COC(=O)C1=C(C)NC(C)=C(C(=O)OC)C1c1ccc(NO)cc1 bound_operator== result=48.5
compound=COc1nc(-c2cn(S(=O)(=O)c3ccc(C)cc3)c3ccc(Br)cc23)cc(C(F)(F)F)c1C#N bound_operator=> result=100

---

test system: HL-60(TB) leukemia; assay: NCI tumour cell line growth inhibition, 48 h
Each entry below carries its reported TGI.
measured quantity: TGI

compound="CCOC(=O)N1C=NC23C(c4ccccc4)C(c4ccccc4)C12C(=O)N(C)C(=O)N3C (stereo unspecified)" result="> 100 µM"
compound=COc1cc2c[n+]3ccc4cc(OC)c(OC)cc4c3cc2cc1O result="> 100 µM"
compound=O=C1C=Cc2cscc21 result="> 100 µM"
compound="CC(=O)Oc1ccc2c(c1OC(C)=O)CCC1C2=CC[C@]2(C)C(=O)CCC12 (stereo partly specified)" result="27.5 µM"
compound=CC[C@]12C=CCN3CC[C@]4(C(=C(C(=O)OC)C1)Nc1cc(OC)c(OC(C)=O)cc14)[C@@H]32 result="0.654 µM"
compound=COc1cc(C(=O)/C=C/c2c(-c3cccs3)nc3sc(C)cn23)cc(OC)c1OC result="> 100 µM"
compound=O=C(O)/C=N/NC(=S)NC1CCCCC1 result="> 100 µM"
compound=CN(C)c1ccc2nc3ccc(=N)cc-3sc2c1 result="32.9 µM"
compound="O=C(Nc1ccn(C2CC(O)C(CO)O2)c(=O)n1)c1ccccc1 (stereo unspecified)" result="> 100 µM"
compound=COc1cc(-n2cncc2-c2ccc3ccccc3c2)cc(OC)c1OC result="1.54 µM"
compound=Nc1ncnc2oc(-c3cccs3)nc12 result="> 100 µM"

---

Catalogue of TGI values
test system: EKVX NSCLC; test: NCI tumour cell line growth inhibition, 48 h
measured quantity: TGI (µM)

compound_string=CCCCCCCCCCCCCCCCP(=O)(OC)OC bound_operator== result=30
compound_string=COC1(OC)C[C@H](C)[C@@]23O[C@]24C2=CC(=O)C=CC2=N[C@H]3C#C/C=C\C#C[C@]14O bound_operator== result=2.21
compound_string=OC(Cc1cccnc1)(c1ccccc1)c1ccccc1 bound_operator=> result=100
compound_string=O=c1c2ccccc2nc(/C=C(\O)c2ccccc2)n1-c1ccccc1Cl bound_operator=> result=100

---

tested on: M14 melanoma; assay: NCI tumour cell line growth inhibition, 48 h
measured quantity: TGI

molecule=COC(=O)[C@@]12OC[C@]34[C@H]([C@@H](O)[C@@H]1O)[C@@]1(C)CC(=O)C(OC(C)=O)=C(C)[C@@H]1C[C@H]3OC(=O)[C@H](OC(=O)C=C(C)C)[C@@H]24 measured_quantity=TGI result="2.63 µM"
molecule="CCOC1CN(C)C(=Nc2cccc3ccccc23)S1 (stereo not given)" measured_quantity=TGI result="> 10 µM"
molecule=COc1c(Br)cc(Br)c(OC)c1-c1ccc[nH]1 measured_quantity=TGI result="> 100 µM"
molecule=O=c1c2cc(I)ccc2nc(-c2cccs2)n1-c1ccc(S(=O)(=O)Nc2nccs2)cc1 measured_quantity=TGI result="> 100 µM"
molecule=Nc1nc[n+](Cc2ccccc2CCO)c2nc[nH]c12 measured_quantity=TGI result="> 100 µM"
molecule="CN1CC[C@]2(C)c3c(O)cccc3CC3CCCC1C32C (stereo not given in full)" measured_quantity=TGI result="> 100 µM"
molecule=Nc1ncnc2oc(-c3cccs3)nc12 measured_quantity=TGI result="> 100 µM"
molecule=Nc1nc(-c2cccc3ccccc23)cc2ccccc12 measured_quantity=TGI result="12.4 µM"
molecule="COc1ccc2c(c1)N(CCO)C1=C(C(=O)OC1)C2c1cc(OC)c(OC)c(OC)c1 (stereo not given)" measured_quantity=TGI result="> 50 µM"
molecule=Cc1ccnc(NS(=O)(=O)c2ccc(NC3=CC(=O)C(=O)c4ccccc43)cc2)n1 measured_quantity=TGI result="> 100 µM"

---

Listed next: entries and their corresponding TGI.
system: HCT-116 colon; assay: NCI tumour cell line growth inhibition, 48 h
measured quantity: TGI

compound="CCOC(=O)N1C=NC23C(c4ccccc4)C(c4ccccc4)C12C(=O)N(C)C(=O)N3C (configuration not stated)" measured_quantity=TGI result="> 100 µM"
compound=OCCNc1ncnc2nc[nH]c12 measured_quantity=TGI result="> 100 µM"
compound=COc1c(Br)cc(Br)c(OC)c1-c1ccc[nH]1 measured_quantity=TGI result="> 100 µM"
compound=COC(=O)[C@@H](Nc1ccccc1)[C@@]1(C(=O)OC)SC12c1ccccc1-c1ccccc12 measured_quantity=TGI result="> 100 µM"
compound=CCOc1cc(NC(C)=O)ccc1C(=O)NN1C(=O)/C(=C/c2ccco2)N=C1c1ccccc1 measured_quantity=TGI result="> 100 µM"
compound=N#CCCC1(CCC#N)CCc2ccccc2C1=O measured_quantity=TGI result="> 100 µM"
compound=O=c1[nH]c2cc(C(F)(F)F)ccc2nc1CBr measured_quantity=TGI result="28.7 µM"
compound="O=C(O)c1ccccc1C1CCCc2c1[nH]c1ccccc21 (configuration not stated)" measured_quantity=TGI result="> 100 µM"
compound=CN(C)C=C1C(=O)N(C)C(=O)N(C)C1=O measured_quantity=TGI result="> 100 µM"
compound=CCN(CC)c1ccc(N=O)cc1 measured_quantity=TGI result="4.71 µM"
compound=C=C(C)[C@@H]1CC[C@]2(COC(C)=O)CC[C@]3(C)[C@H](CC[C@@H]4[C@@]5(C)CC[C@H](OC(C)=O)C(C)(C)[C@@H]5CC[C@]43C)[C@@H]12 measured_quantity=TGI result="> 50 µM"
compound=Cc1sccc1C(=S)Nc1ccc(Cl)c(/C=N/OC(C)(C)C)c1 measured_quantity=TGI result="> 100 µM"
